# System: PBMC
# ASSAY_TEXT: Immunomodulatory activity in human PBMCs assessed as increase in PMA/ionomycin-induced IL6 release at 20 uM incubated for 18 hrs by multiplexed cytokine assay
# Assay type: functional, cell-based
Calls of active or inactive are those of the source. No cut-off for these calls is given here.
Outcome field: choose from 1 (active), -1 (inactive)

Some entries whose results are on file:
• CCOC(=O)CC[C@@H](NC(=O)[C@H](C)NC(=O)C1=C2c3ccccc3S(=O)(=O)N2CCC1)C(=O)OCC = 1
• CCOC(=O)CC[C@@H](NC(=O)[C@H](C)NC(=O)CCCCN1C(=O)c2ccccc2S1(=O)=O)C(=O)OCC = -1
• CCOC(=O)CC[C@@H](NC(=O)[C@H](C)NC(=O)CNC(=O)c1cc2ccccc2[nH]1)C(=O)OCC = 1

Now let's try a different one.
What was the test verdict on `CCOC(=O)CC[C@@H](NC(=O)[C@H](C)NC(=O)COCCN1C(=O)c2ccccc2S1(=O)=O)C(=O)OCC` ?
-1

---

Reported viability at 18 h, 20 µM by item:
# ASSAY_TEXT: Cytotoxicity against human PBMCs assessed as residual metabolic activity at 20 uM after 18 hrs by MTS assay
# Type: ADME, cell-based, PBMC
# APPLIED_CONDITIONS: read-out: Activity

Entry `CCOC(=O)CC[C@@H](NC(=O)[C@H](C)NC(=O)COCCN1C(=O)c2ccccc2S1(=O)=O)C(N)=O` — recorded viability at 18 h, 20 µM = ≥ 90%

---

# MEASURED_TARGET: Nucleotide-binding oligomerization domain-containing protein 2 (Homo sapiens) (UniProt Q9HC29)
# Sequence (Q9HC29 whole entry, the tested form may be a part): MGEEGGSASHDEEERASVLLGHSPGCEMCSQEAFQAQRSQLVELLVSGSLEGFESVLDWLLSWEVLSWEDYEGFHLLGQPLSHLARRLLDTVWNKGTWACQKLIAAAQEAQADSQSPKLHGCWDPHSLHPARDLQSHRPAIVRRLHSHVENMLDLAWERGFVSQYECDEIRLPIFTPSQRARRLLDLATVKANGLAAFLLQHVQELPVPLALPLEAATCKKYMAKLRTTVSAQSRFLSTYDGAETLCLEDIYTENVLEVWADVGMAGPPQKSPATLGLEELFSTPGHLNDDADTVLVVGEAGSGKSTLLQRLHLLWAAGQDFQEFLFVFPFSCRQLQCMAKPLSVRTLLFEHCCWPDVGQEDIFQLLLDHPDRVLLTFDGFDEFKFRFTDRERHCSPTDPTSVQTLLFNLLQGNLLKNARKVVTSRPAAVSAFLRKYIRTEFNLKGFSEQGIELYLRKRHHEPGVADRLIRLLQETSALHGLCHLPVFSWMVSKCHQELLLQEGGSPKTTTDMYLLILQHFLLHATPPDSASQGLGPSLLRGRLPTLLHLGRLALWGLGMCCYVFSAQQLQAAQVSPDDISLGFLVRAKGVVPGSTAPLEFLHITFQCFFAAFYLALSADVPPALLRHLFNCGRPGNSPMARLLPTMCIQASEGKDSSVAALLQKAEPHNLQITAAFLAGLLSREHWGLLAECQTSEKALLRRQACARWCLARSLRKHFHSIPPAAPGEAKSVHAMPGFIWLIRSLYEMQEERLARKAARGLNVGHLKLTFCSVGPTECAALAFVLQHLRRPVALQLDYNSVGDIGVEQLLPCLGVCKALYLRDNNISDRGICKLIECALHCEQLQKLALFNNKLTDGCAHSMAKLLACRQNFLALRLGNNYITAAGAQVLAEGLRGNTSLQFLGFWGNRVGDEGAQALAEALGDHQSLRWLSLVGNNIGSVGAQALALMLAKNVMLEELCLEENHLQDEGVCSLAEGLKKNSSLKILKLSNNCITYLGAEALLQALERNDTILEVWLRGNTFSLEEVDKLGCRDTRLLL
# ASSAY_TEXT: Agonist activity at human Nod2 expressed in HEK293-blue cells assessed as increase in NF-kappaB transcriptional activity at 20 uM incubated for 18 hrs using quanti blue assay based SEAP reporter gene assay
# Type: functional, cell-based
Calls of active or inactive are those of the source. The rule behind the calls is not given here.
Please state which outcome applies, choosing from active, inactive

* CCOC(=O)CC[C@@H](NC(=O)[C@H](C)NC(=O)CNC(=O)c1cc2ccccc2[nH]1)C(N)=O | inactive

Now look at this one.
For this molecule, state the assay outcome: CCCCOC(=O)[C@@H](CCC(N)=O)NC(=O)[C@H](C)NC(=O)[C@@H](C)O[C@H]1[C@H](O)[C@@H](CO)OC(O)[C@@H]1NC(C)=O (stereo partly specified) [MURABUTIDE]
active

---

# Tested on: PBMC
# ASSAY_TEXT: Immunomodulatory activity in human PBMCs assessed as increase in PMA/ionomycin-induced IL-1beta release at 20 uM incubated for 18 hrs by multiplexed cytokine assay
# Type: functional, cell-based
The source made the active and inactive calls. The calls are words filed in the database; no cut-off is given here.
The reply should name one outcome from active, inactive

Example entries and their recorded answers appear below.
• CCOC(=O)CC[C@@H](NC(=O)[C@H](C)NC(=O)COCCN1C(=O)c2ccccc2S1(=O)=O)C(N)=O = inactive
• CCCCOC(=O)[C@@H](CCC(N)=O)NC(=O)[C@H](C)NC(=O)[C@@H](C)O[C@H]1[C@H](O)[C@@H](CO)OC(O)[C@@H]1NC(C)=O (stereo partly drawn) [MURABUTIDE] = active
• CCOC(=O)CC[C@@H](NC(=O)[C@H](C)NC(=O)CCCCN1C(=O)c2ccccc2S1(=O)=O)C(=O)OCC = inactive
• CCOC(=O)CC[C@@H](NC(=O)[C@H](C)NC(=O)C1=C2c3ccccc3S(=O)(=O)N2CCC1)C(=O)OCC = active
• CCOC(=O)CC[C@@H](NC(=O)[C@H](C)NC(=O)CCCCN1C(=O)c2ccccc2S1(=O)=O)C(N)=O = inactive
• CCOC(=O)CC[C@@H](NC(=O)[C@H](C)NC(=O)CNC(=O)c1cc2ccccc2[nH]1)C(N)=O = inactive
• CCOC(=O)CC[C@@H](NC(=O)[C@H](C)NC(=O)COCCN1C(=O)c2ccccc2S1(=O)=O)C(=O)OCC = inactive

Which result was noted for this molecule in the test: `CCOC(=O)CC[C@@H](NC(=O)[C@H](C)NC(=O)CNC(=O)c1cc2ccccc2[nH]1)C(=O)OCC`
active
